ASSAY TARGET: human full-length MKNK1 (Homo sapiens (Human), UniProt Q9BUB5, T344D)
Sequence (Q9BUB5 other isoform, or with tags, fused parts or gaps T344D): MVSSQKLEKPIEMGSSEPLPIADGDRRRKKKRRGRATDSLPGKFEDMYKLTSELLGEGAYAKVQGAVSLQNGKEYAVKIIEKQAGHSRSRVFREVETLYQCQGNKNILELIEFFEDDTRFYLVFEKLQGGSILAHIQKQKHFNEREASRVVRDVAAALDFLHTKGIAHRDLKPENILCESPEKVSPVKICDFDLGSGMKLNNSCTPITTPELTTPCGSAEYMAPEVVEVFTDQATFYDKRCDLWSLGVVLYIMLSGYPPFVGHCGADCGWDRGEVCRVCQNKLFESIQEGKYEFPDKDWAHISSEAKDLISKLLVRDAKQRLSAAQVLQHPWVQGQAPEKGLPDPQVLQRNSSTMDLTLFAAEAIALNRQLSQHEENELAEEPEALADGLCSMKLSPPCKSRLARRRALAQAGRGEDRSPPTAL
ASSAY NAME: MKNK1 kinase assay (MKNK1 TR-FRET assay)
Type: biochemical
CONDITION: 10 μM ATP final conc.; 15 min preincubation with enzyme
We label by threshold. Values of IC50 strictly beneath 10 nM are Y. Values of 10 nM and up are N.

| COMPOUND | CLASS NAME |
| --- | --- |
| COc1cccc2oc(-c3cnc4ccc(OCC(N)C5CC5)nn34)cc12 (centres unmarked) | N |
| N[C@H](COc1ccc2ncc(-c3cc4ccccc4o3)n2n1)c1ccc(F)cc1 | N |
| C[C@H](N)COc1ccc2ncc(-c3cc4c(F)cccc4o3)n2n1 | N |
| NC[C@H](Oc1ccc2ncc(-c3cc4ccccc4o3)n2n1)c1cccnc1 | N |
| NCC(Oc1ccc2ncc(-c3cc4ccccc4o3)n2n1)c1ccc(F)cc1 (centres unmarked) | N |
| NCC(Cc1ccccc1)Oc1ccc2ncc(-c3cc4ccccc4o3)n2n1 (centres unmarked) | N |
| NC[C@H]1C[C@H](Oc2ccc3ncc(-c4cc5ccccc5o4)n3n2)C1 | Y |
| N[C@H]1C[C@H](Oc2ccc3ncc(-c4cc5ccccc5o4)n3n2)C1 | Y |
| Cc1ccc2oc(-c3cnc4ccc(O[C@H](C)CN)nn34)cc2c1 | N |
| NCCCOc1ccc2ncc(-c3cc4ccccc4o3)n2n1 | Y |
| N[C@H](COc1ccc2ncc(-c3cc4ccccc4o3)n2n1)c1ccccc1 | Y |
| COc1ccc2oc(-c3cnc4ccc(OCCCN)nn34)cc2c1 | Y |
| N[C@H](COc1ccc2ncc(-c3cc4cc(Cl)ccc4o3)n2n1)c1ccccc1 | N |
| N[C@H]1C[C@H](COc2ccc3ncc(-c4cc5ccccc5o4)n3n2)C1 | Y |
| NCCCCOc1ccc2ncc(-c3cc4ccccc4o3)n2n1 | Y |
| CC(C)Oc1cccc(C(CN)Oc2ccc3ncc(-c4cc5ccccc5o4)n3n2)c1 (centres unmarked) | N |
| CC(CN)COc1ccc2ncc(-c3cc4ccccc4o3)n2n1 (centres unmarked) | Y |
| N[C@@H](COc1ccc2ncc(-c3cc4ccccc4o3)n2n1)c1ccccc1 | N |
| CC(C)(N)CCOc1ccc2ncc(-c3cc4ccccc4o3)n2n1 | N |
| NC[C@H](Oc1ccc2ncc(-c3cc4ccccc4o3)n2n1)c1ccccc1 | N |
| COc1cccc2oc(-c3cnc4ccc(OCCCCN)nn34)cc12 | Y |
| NCC(Oc1ccc2ncc(-c3cc4ccccc4o3)n2n1)c1ccccn1 (centres unmarked) | N |
| C[C@H](CN)Oc1ccc2ncc(-c3cc4cc(Cl)ccc4o3)n2n1 | N |
| NCC(COc1ccc2ncc(-c3cc4ccccc4o3)n2n1)c1ccccc1 (centres unmarked) | N |
| NCC(Oc1ccc2ncc(-c3cc4ccccc4o3)n2n1)C1CC1 (centres unmarked) | N |
| COc1cccc2oc(-c3cnc4ccc(OCCN)nn34)cc12 | Y |
| COc1cccc2oc(-c3cnc4ccc(OCCCN)nn34)cc12 | Y |
| CC(C)(N)COc1ccc2ncc(-c3cc4ccccc4o3)n2n1 | N |

# credit: patent US9499547B2
